Source listed as a melting point compilation (Tetko et al.).

measurement.label: melting point

>>> df
                               sample_smiles         result
 0  CC(C)(C)c1cnc(C(=O)Nc2cc(C(F)(F)F)cc(C(F)(F)F)c2)cn1         136 °C
 1    OCCN1CCN(CCCN2c3ccccc3C=Cc3ccccc32)CC1         100 °C
 2                     NC(=NO)c1cccc(Cl)c1Cl  139 to 140 °C
 3  Cc1ccc(C=C2C(=O)NN=C2c2c(O)c3ccccc3n(C)c2=O)cc1         280 °C
 4            O=C(O)CCC(=O)c1ccc2c(c1)OCCCO2  149 to 151 °C
 5                       Ic1cc(I)c(I)c(I)c1I         172 °C
 6                   Cc1sc2ccccc2c1CC1=NCCN1         156 °C
 7                CC(=O)Nc1cccc(-n2nnnc2S)c1  185 to 187 °C
 8     O=C(Cl)c1cc2ccccc2n1S(=O)(=O)c1ccccc1  127 to 128 °C
 9                                       CNN         -21 °C
10  O=C(Cc1cc(CC(=O)Nc2ccccc2)c([N+](=O)[O-])cc1[N+](=O)[O-])Nc1ccccc1         267 °C
11                                O=C1NCCCN1         265 °C

====

measurement.label: melting point (°C)

                           molecule  measurement_label  unit_abbrev  quantitative_readout
0                      FC(F)=C(F)Cl      melting point           °C                  -109
1  CC1CCCCC1(C)C (stereo not drawn)      melting point           °C                   -29
2             CC1(C)OC(=O)c2ccccc21      melting point           °C                    70
3              O=C(O)C=Cc1ccc(O)cc1      melting point           °C                   214
4           CCCCc1c(C)nc(N(C)C)nc1O      melting point           °C                   102
5       Cc1ccc2sc(S(=O)(=O)Cl)cc2c1      melting point           °C                    83

====

Below is a list of entries, each paired with its recorded melting point value.
measurement.label: melting point

>>> df
                                    compound         result
 0                         Nc1ccccc1N1CCCCC1          46 °C
 1      O=Cc1ccc(SC2CCCCC2)c([N+](=O)[O-])c1    94 to 96 °C
 2                 O=C(O)C=C1OC(=O)c2ccccc21  287 to 290 °C
 3                    CN(C)c1ccc(C(=O)NN)cc1         175 °C
 4       COc1ccc(-c2c(C(=O)O)sc(SC)c2C#N)cc1  209 to 214 °C
 5           COc1ccc(C(C)(C)c2ccc(OC)cc2)cc1    54 to 59 °C
 6               Cn1ccc2cc(S(=O)(=O)Cl)ccc21    79 to 80 °C
 7                     Cc1nn(C)c(C(=O)O)c1Br  225 to 226 °C
 8  CC1=C(C=NNC(N)=O)C(=O)C(C(C)C)C=C1 (stereo unspecified)  221 to 222 °C
 9                                CCCCCCCOCC       -68.3 °C
10  CC(=O)OCC1OC(n2cnc3c(=O)[nH]c(N)nc32)C(OC(C)=O)C1OC(C)=O (stereo unspecified)  224 to 233 °C
11  N=c1sc(C(=O)c2cccs2)nn1-c1[nH]nc(-c2ccccc2)c1Br  102 to 103 °C
12  Clc1ccc(Cc2c(N=Cc3ccc4c(c3)OCO4)n[nH]c2N=Cc2ccc3c(c2)OCO3)cc1  206 to 208 °C
13                COc1ccc(C(F)(F)F)cc1C(=O)O         110 °C
14                            Oc1cccc2sccc12        79.8 °C
15           CC1CCCC1=O (stereo unspecified)         -75 °C
16         N#Cc1ccc(C(F)(F)F)cc1[N+](=O)[O-]          44 °C
17                      Cc1nc2cc(C)c(C)cc2s1          84 °C
18          Cc1[nH]c2ccc([N+](=O)[O-])cc2c1C         189 °C
19              O=[N+]([O-])c1cccc2cc[nH]c12    95 to 98 °C
20                          CCC(=O)Oc1ccccc1          20 °C
21                       O=C(O)c1ccc(F)cc1Br  169 to 173 °C
22              O=[N+]([O-])c1cccc2cn[nH]c12         187 °C
23  CC12CCCC1C1CCC3CC4(CCC3(C)C1CC2)OCCO4 (stereo unspecified)         117 °C
24  CC(C)(C)CC(C)(C)Nc1nc(N2CCOCC2)nc(N2CCOCC2)n1         159 °C
25                           ClCc1ccc(Br)cc1          50 °C
